Cited source for all entries: paper PMC7329864

assay: In-vivo pharmacokinetic studies; details: Mean
readout: Tmax (min)
Your answer should be a plain number; it is taken to be in min.

Note down Tmax recorded for O=C1NC(=O)C(=Cc2cn(CCCCCCn3c4ccccc4c(=O)c4ccccc43)c3ccccc23)C(=O)N1
25

* * *

assay: In-vivo pharmacokinetic studies; settings: Animal 3, read-out: T1/2
readout: half-life (h)
Numbers only here, please. The scale is h.

Answer with the recorded half-life for the molecule listed here: O=C1NC(=O)C(=Cc2cn(CCCCCCn3c4ccccc4c(=O)c4ccccc43)c3ccccc23)C(=O)N1
8.68

* * *

readout: log10 IC50 (log10 of the value in µM)
Give log10 of IC50, with IC50 taken in µM.

Please report the measured log10 IC50 for O=C1NC(=O)C(=Cc2cn(CCCn3c4ccccc4c(=O)c4ccccc43)c3ccccc23)C(=O)N1 tested on wt COX-2 (Homo sapiens, UniProt P35354).
Sequence (P35354 18-604): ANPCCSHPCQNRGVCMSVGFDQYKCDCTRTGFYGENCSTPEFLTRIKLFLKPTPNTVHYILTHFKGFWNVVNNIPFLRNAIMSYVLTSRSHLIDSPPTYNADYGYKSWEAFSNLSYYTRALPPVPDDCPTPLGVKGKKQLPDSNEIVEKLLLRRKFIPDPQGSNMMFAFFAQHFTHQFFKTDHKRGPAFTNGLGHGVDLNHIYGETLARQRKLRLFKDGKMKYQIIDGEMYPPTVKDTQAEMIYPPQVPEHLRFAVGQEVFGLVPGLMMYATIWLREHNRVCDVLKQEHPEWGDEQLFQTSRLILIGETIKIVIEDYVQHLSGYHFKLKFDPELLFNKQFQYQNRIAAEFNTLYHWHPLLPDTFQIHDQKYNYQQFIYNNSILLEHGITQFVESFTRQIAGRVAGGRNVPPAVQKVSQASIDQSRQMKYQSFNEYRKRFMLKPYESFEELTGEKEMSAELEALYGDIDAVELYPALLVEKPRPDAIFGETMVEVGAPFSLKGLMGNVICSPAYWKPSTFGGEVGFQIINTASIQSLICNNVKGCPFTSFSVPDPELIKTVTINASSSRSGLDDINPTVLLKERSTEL
1.00

Name the value of log10 IC50 reported for CN1C(=O)C(=Cc2cn(CCCCCCn3c4ccccc4c(=O)c4ccccc43)c3ccccc23)C(=O)N(C)C1=O when tested on wt COX-2 (Homo sapiens, UniProt P35354).
0.33

Using wt COX-2 (Homo sapiens, UniProt P35354) as the test system, report measured log10 IC50 of Cn1cc(/C=C2\C(=O)N(CCCCCn3c4ccccc4c(=O)c4ccccc43)c3ccccc32)c2ccccc21 .
-0.46

Write down the reported log10 IC50 (system: wt COX-2 (Homo sapiens, UniProt P35354)) of O=c1c2ccccc2n(CCCCCCBr)c2ccccc12 [Compound 13d, 10-(6-Bromohexyl)acridin-9(10H)-one]
1.69

GET log10 IC50 | system: wt COX-2 (Homo sapiens, UniProt P35354) | item: O=C1NC(=O)C(=Cc2cn(CCCCCn3c4ccccc4c(=O)c4ccccc43)c3ccccc23)C(=O)N1
-1.00

Under wt COX-2 (Homo sapiens, UniProt P35354): report log10 IC50 of O=Cc1cn(CCCCCCn2c3ccccc3c(=O)c3ccccc32)c2ccccc12 [Compound 15d] .
1.37

Please tell me the measured log10 IC50 for Cn1cc(/C=C2\C(=O)N(CCCCCCn3c4ccccc4c(=O)c4ccccc43)c3ccccc32)c2ccccc21 ; system: wt COX-2 (Homo sapiens, UniProt P35354).
-0.82

# return log10 IC50 for O=C1NC(=O)C(=Cc2cn(CCCCCCn3c4ccccc4c(=O)c4ccccc43)c3ccccc23)C(=O)N1 , test system: wt COX-2 (Homo sapiens, UniProt P35354)
-1.22
